Please respond with reported pKi for every item in the list.
Target: T1, his6-SonM, wild type, individually expressed (Shewanella oneidensis MR-1, UniProt Q8EGW3 1-263)
T1 construct: SonM (SO1478), α-N-methyltransferase of Shewanella oneidensis MR-1, 263 AA; gene sonM amplified from genomic DNA; also called wt; source: E. coli BL21(DE3), pET28b, purified (Ni-NTA or HisTrap, Superdex 200 SEC); not shown: His6, N-terminal, kept
T1 sequence (looked up): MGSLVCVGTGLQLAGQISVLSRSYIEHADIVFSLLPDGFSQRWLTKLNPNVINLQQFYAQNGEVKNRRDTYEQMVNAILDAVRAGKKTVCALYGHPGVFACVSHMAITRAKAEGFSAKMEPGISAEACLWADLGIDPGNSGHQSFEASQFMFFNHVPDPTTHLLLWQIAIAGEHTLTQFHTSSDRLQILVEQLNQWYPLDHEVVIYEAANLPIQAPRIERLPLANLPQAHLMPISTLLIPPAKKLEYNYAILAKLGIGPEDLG
Assay: enzyme inhibition kinetics (continuous coupled methyltransferase assay, A340); apparent Ki; 5 μM wt SonM, saturating SAM (1 mM), varying concentrations of SonA and of the inhibitor (SonA-BBD or SonA-2Me); non-linear regression in GraphPad Prism 8
Conditions: both partners purified
Just so you know, pKi here is -log10 of the concentration in molar units; reply with that number alone.

Respond only with pKi recorded for doubly α-N-methylated SonA precursor peptide (SonA-2Me), his6-tagged (natural protein, Shewanella oneidensis MR-1, UniProt Q8EGW2 1-71, looked up, N-methyl-L-leucine (MLE) at 63; N-methyl-L-isoleucine (IML) at 65 (backbone α-N-methylations), SonA (SO1479), borosin precursor peptide of Shewanella oneidensis MR-1; BBD leader 1-53, linker 54-61, core peptide 62-71; also called doubly methylated SonA; SO1479; source: E. coli BL21(DE3), co-expressed from pET28b with SonM, purified (Ni-NTA or HisTrap, Superdex 200 SEC)) MSGLSDFFTQLGQDAQLMEDYKQNPEAVMRAHGLTDEQINAVMTGDMEKLKTLSGDSSYQSYLVISHGNGD
3.80

Respond only with pKi recorded for SonA borosin binding domain only construct (SonA-BBD; 1-55) (domain or fragment, Shewanella oneidensis MR-1, UniProt Q8EGW2 1-55, looked up, SonA (SO1479) of Shewanella oneidensis MR-1, helical bundle composed of the first 55 amino acids (1-55); The his6 tag is stated for the individual construct; for the co-expression construct it is surmised from the template plasmid pMF1181; also called BBD-SonA; his6-SonA-BBD) MSGLSDFFTQLGQDAQLMEDYKQNPEAVMRAHGLTDEQINAVMTGDMEKLKTLSG
5.41
